experiment: removal of 2'-protecting groups by acidic hydrolysis at 25° C. (HPLC); format: physicochemical; details: pH 2.0; 25° C.; hydrochloric acid or 0.2M glycine hydrochloride buffer
READOUT_KIND: t1/2 (half-time) (min)
Numbers only, in min.

[[record]]
molecule = "COC1(O[C@@H]2[C@H](O)[C@@H](CO)O[C@H]2n2ccc(=O)[nH]c2=O)CCN(c2ccccc2)CC1 [reference compound]"
unit_symbol = "min"
quantitative_result = 660

[[record]]
molecule = "COC1(O[C@@H]2[C@H](O)[C@@H](CO)O[C@H]2n2ccc(=O)[nH]c2=O)CCOCC1 [reference compound]"
unit_symbol = "min"
quantitative_result = 20.5

[[record]]
molecule = "COC1(O[C@@H]2[C@H](O)[C@@H](CO)O[C@H]2n2ccc(=O)[nH]c2=O)CCN(c2ccc(C)cc2Cl)CC1"
unit_symbol = "min"
quantitative_result = 41


# evaluate next
QUERY: Which t1/2 (half-time) is listed for "COC1(O[C@@H]2[C@H](OP(=O)(O)OC[C@H]3O[C@@H](n4ccc(=O)[nH]c4=O)[C@H](O)[C@@H]3O)[C@@H](CO)O[C@H]2n2ccc(=O)[nH]c2=O)CCN(c2ccc(C)cc2Cl)CC1" ?
RESULT: 21.5
